# Tested on: HepG2 cells transduced with AdCYP2D6
# measurement-notes: HCS hepatotoxicity assay (MEC, TR), AdCYP2D6-HepG2
# Type: cell-based, human
# stated-conditions: AdCYP 2D6 10x; 24 h; unit inferred, tested range in µM
parameter-measured: MEC MMP

Item: C1CCC(C(CC2CCCCN2)C2CCCCC2)CC1 (stereo not shown) | MEC MMP: > 27.5 µM

---

# Test system: HepG2 cells co-transduced with AdCYP2E1 and AdCYP1A2
# measurement-notes: HCS hepatotoxicity assay (MEC, TR), AdCYP2E1 + AdCYP1A2 HepG2
# Assay type: cell-based, human
# stated-conditions: CYP2E1-1X + CYP1A2-1X; 24 h; unit inferred, tested range in mM
# Procedure: For subculturing purposes, cells were detached by treatment with 0.25% trypsin/0.02% EDTA at 37 °C. For the adenovirus infection studies, cells were seeded in 96-well plates (5000 cells/well) and adenovirus-containing medium was added 48 h later. […] The drugs included in the study were chosen based on previous information about their hepatotoxicity. […] Each experimental condition was repeated independently three times (with three wells measured each time). […]
parameter-measured: MEC MMP (mM)
Return type: number; implicit unit mM.

Entry under test: CC(=O)Nc1ccc(O)cc1 [Acetaminophen] . Its MEC MMP was 10

---

# System: HepG2 cells
# stated-conditions: human, 24 h
# label = YES if MEC ROS >= 50 else NO

Look over these answered cases.
compound	label
C1CCC(C(CC2CCCCN2)C2CCCCC2)CC1 (stereo not shown)	NO
Cc1c(C)c2c(c(C)c1O)CCC(C)(COc1ccc(CC3SC(=O)NC3=O)cc1)O2 (stereo not shown)	YES
NNC(=O)c1ccncc1	YES
CC(=O)Nc1ccc(O)cc1	NO
O=C(O)COc1ccc(C(=O)c2cccs2)c(Cl)c1Cl	YES

Task: Hi team, for CC(C)C(=O)Nc1ccc([N+](=O)[O-])c(C(F)(F)F)c1 [Flutamide] , is the recorded MEC ROS at or above 50?
Output: YES

---

# Test system: HepG2 cells co-transduced with AdCYP2E1, CYP1A2 and AdGSTM1
# measurement-notes: HCS hepatotoxicity assay (MEC, TR), AdCYP2E1 + AdCYP1A2 + AdGSTM1 HepG2
# Assay type: cell-based, human
# stated-conditions: CYP2E1-4X + CYP1A2-4X + GSTM1; 24 h; unit inferred, tested range in mM
# Experimental: For subculturing purposes, cells were detached by treatment with 0.25% trypsin/0.02% EDTA at 37 °C. For the adenovirus infection studies, cells were seeded in 96-well plates (5000 cells/well) and adenovirus-containing medium was added 48 h later. […] The drugs included in the study were chosen based on previous information about their hepatotoxicity. […] Each experimental condition was repeated independently three times (with three wells measured each time). […]
parameter-measured: MEC ROS
Answer format: number, then unit.

Record summary for CC(=O)Nc1ccc(O)cc1 [Acetaminophen] : reported MEC ROS = 6 mM

---

# Test system: HepG2 cells transduced with AdCYP1A2
# measurement-notes: HCS hepatotoxicity assay (MEC, TR), AdCYP1A2-HepG2
# Type: cell-based, human
# stated-conditions: AdCYP 1A2 10x; 24 h; unit inferred, tested range in µM
parameter-measured: MEC ROS
Your reply should be a number followed by the unit it is expressed in.

So for CC(C)C(=O)Nc1ccc([N+](=O)[O-])c(C(F)(F)F)c1 [Flutamide] , the logged MEC ROS turned out to be 250 µM

---

# Tested on: HepG2 cells transduced with AdCYP1A2
# measurement-notes: HCS hepatotoxicity assay (MEC, TR), AdCYP1A2-HepG2
# Type: cell-based, human
# stated-conditions: AdCYP 1A2 10x; 24 h; unit inferred, tested range in µM
parameter-measured: MEC Calcium
Value and unit, in that order.

I looked up CC(C)C(=O)Nc1ccc([N+](=O)[O-])c(C(F)(F)F)c1 [Flutamide] and its MEC Calcium for HepG2 cells transduced with AdCYP1A2 was 50 µM

---

# Tested on: HepG2 cells transduced with AdCYP2C19
# measurement-notes: HCS hepatotoxicity assay (MEC, TR), AdCYP2C19-HepG2
# Assay type: cell-based, human
# stated-conditions: AdCYP 2C19 10x; 24 h; unit inferred, tested range in µM
parameter-measured: MEC ROS (µM)
Give just the numeric value; µM need not be written.

The recorded MEC ROS for entry CC(C)C(=O)Nc1ccc([N+](=O)[O-])c(C(F)(F)F)c1 [Flutamide] equals 50

---

# System: HepG2 cells transduced with AdCYP1A2
# measurement-notes: HCS hepatotoxicity assay (MEC, TR), AdCYP1A2-HepG2
# Assay type: cell-based, human
# stated-conditions: AdCYP 1A2 4x; 24 h; unit inferred, tested range in µM
parameter-measured: MEC Mitochondrial superoxide (µM)
All answers are understood in µM, so give the number only.

The recorded MEC Mitochondrial superoxide for entry CC(C)C(=O)Nc1ccc([N+](=O)[O-])c(C(F)(F)F)c1 [Flutamide] equals 50

---

# Test system: HepG2 cells co-transduced with AdCYP2E1, CYP1A2 and AdGSTM1
# measurement-notes: HCS hepatotoxicity assay (MEC, TR), AdCYP2E1 + AdCYP1A2 + AdGSTM1 HepG2
# Assay type: cell-based, human
# stated-conditions: CYP2E1-1X + CYP1A2-1X + GSTM1; 24 h; unit inferred, tested range in mM
parameter-measured: MEC Mitochondrial superoxide (mM)
Numeric only. Scale: mM

Entry CC(=O)Nc1ccc(O)cc1 [Acetaminophen] ; MEC Mitochondrial superoxide = 6

---

# Test system: HepG2 cells transduced with AdCYP2D6
# measurement-notes: HCS hepatotoxicity assay (MEC, TR), AdCYP2D6-HepG2
# Assay type: cell-based, human
# stated-conditions: AdCYP 2D6 4x; 24 h; unit inferred, tested range in µM
parameter-measured: MEC MMP (µM)
Kindly provide the numeric value in µM only, without the unit symbol.

For reference, reported MEC MMP for C1CCC(C(CC2CCCCN2)C2CCCCC2)CC1 (stereo not shown) stands at 27.5

---

# Tested on: HepG2 cells transduced with AdCYP1A2
# measurement-notes: Cell viability (PI), IC50, AdCYP1A2-HepG2
# Format: cell-based
# stated-conditions: Homo sapiens, ADV CYP1A2 x4, 24 h, unit inferred, tested range in µM, read-out: IC50 (cell viability), ADV dose x4
# Protocol: For subculturing purposes, cells were detached by treatment with 0.25% trypsin/0.02% EDTA at 37 °C. For the adenovirus infection studies, cells were seeded in 96-well plates (5000 cells/well) and adenovirus-containing medium was added 48 h later. […] The drugs included in the study were chosen based on previous information about their hepatotoxicity. […] Each experimental condition was repeated independently three times (with three wells measured each time). […]
parameter-measured: IC50 (µM)
I only need the number, in µM, no unit after it.

So the reported IC50 for CC(C)C(=O)Nc1ccc([N+](=O)[O-])c(C(F)(F)F)c1 [Flutamide] , on HepG2 cells transduced with AdCYP1A2, turned out to be 261

---

# Tested on: HepG2 cells transduced with AdCYP2D6
# measurement-notes: HCS hepatotoxicity assay (MEC, TR), AdCYP2D6-HepG2
# Type: cell-based, human
# stated-conditions: AdCYP 2D6 1x; 24 h; unit inferred, tested range in µM
parameter-measured: MEC Mitochondrial superoxide

For C1CCC(C(CC2CCCCN2)C2CCCCC2)CC1 (stereo not shown) the molecule record lists MEC Mitochondrial superoxide as 22.5 µM

---

# Tested on: HepG2 cells transduced with AdCYP2D6
# measurement-notes: HCS hepatotoxicity assay (MEC, TR), AdCYP2D6-HepG2
# Assay type: cell-based, human
# stated-conditions: AdCYP 2D6 10x; 24 h; unit inferred, tested range in µM
parameter-measured: MEC Lipids

For C1CCC(C(CC2CCCCN2)C2CCCCC2)CC1 (stereo not shown) on HepG2 cells transduced with AdCYP2D6, measured MEC Lipids was > 27.5 µM

---

# System: HepG2 cells co-transduced with AdCYP2E1 and AdCYP1A2
# measurement-notes: HCS hepatotoxicity assay (MEC, TR), AdCYP2E1 + AdCYP1A2 HepG2
# Assay type: cell-based, human
# stated-conditions: CYP2E1-1X + CYP1A2-1X; 24 h; unit inferred, tested range in mM
parameter-measured: MEC Calcium (mM)
Report the value in mM with no unit label.

The molecule listed as "CC(=O)Nc1ccc(O)cc1" has a reported MEC Calcium of 6

---

# System: HepG2 cells co-transduced with AdCYP2E1 and AdGSTM1
# measurement-notes: HCS hepatotoxicity assay (MEC, TR), AdCYP2E1 + AdGSTM1 HepG2
# Format: cell-based, human
# stated-conditions: CYP2E1-10X + GSTM1; 24 h; unit inferred, tested range in mM
parameter-measured: MEC Calcium (mM)
Write the value in mM as a bare number.

Entry NNC(=O)c1ccncc1 [Isoniazid] — recorded MEC Calcium = 20
